# EC50 annotations
TARGET_OR_SYSTEM: EBOV GPddmuc (Ebola virus (EBOV), UniProt Q05320 33-650)
METHOD_SUMMARY: ELISA
Report as a plain number; the unit nM is understood.

These recorded examples may help you get a feel for the data.
FVM24 (antibody, V domains shown) VH: EVQLVQSGAEVKRPGESLKISCKTSGYSFTDSWVAWVRQMPGKGLEWMGSIYPGDFQTRYNPSFQGHVTLSADKSISTTYLQWSSLKASDTATYYCVKGSETWGPGVLVTVSS VL: SSGLTQPASLSASPGASASLTCTFSGGINVAGYNILWYQQKAGSPPRYLLRYKSDSTKDQGSGVPSRFSGSKDVSANTGILRISGLQSDDEADYYCAIGHSSGWIFGGGTRLTVL : 0.153
FVM10 (antibody, V domains shown) VH: QVQLVQSGAEVKRPGESLKISCQTSGYSFTDSWVAWVRQMPGKGLEWLGSIYPGDSETKYNPSFQGHVTISADKSISTAYLQWSSLKASDTATYYCAKGSETWGQGLRVTVSS VL: QAGLTQPASLSASPGASASLTCTFSGGINVAGYNILWYQQKPGSPPRYLLRYKSDSDKDQGSGVPSRFSGSKDASANTGILRISGLQSEDEADYYCAIGHSSGWIFGGGTRLTVL : 0.079

Now look at this entry.
Form field: reported EC50 of FVM01P (antibody, V domains shown) VH: QVQLQESGPGLVKPSETLSLTCTVSGASISNYRWNWIRQPPGKGLEWIGEINGYSGSTNYNPSLKSRVTISKDASKNQFSLKLTSVTAADTAVYYCPIIGGFTLEWFDVWGPGVLVTVSS VL: DVVLTQSPSSLSASVGDRVTITCRASQGIRNYLNWYQQKPRKAPKLLIYAASSLQSGVPSRFSGSGSGTEFTLTISSLQAEDFATYYCLQGYRTPFTFGPGTKLDIKR 0.057

Values were extracted from patent US20170334973A1.
